molecular target: Tyrosine-protein kinase Lyn (Homo sapiens); conditions: at 10 µM
PROPERTY: residual activity (%)
Kindly provide the numeric value in % only, without the unit symbol.

Some compounds with known residual activity results, for comparison:
smiles_str=Nc1ncnc2c1c(-c1ccc(Oc3ccccc3)cc1)cn2C1CCCC1 property="residual activity" reported_result=1
smiles_str=COc1cc2c(cc1OC)-c1n[nH]c(Nc3cccc(F)c3)c1C2 property="residual activity" reported_result=6
smiles_str=O=C(CCCc1ccc(-c2ccccc2F)cc1)Nc1ccc(O)cc1 property="residual activity" reported_result=85
smiles_str=O=c1c(-c2ccc(F)cc2)c(-c2ccncc2)[nH]n1-c1ccc(Cl)cc1 property="residual activity" reported_result=38
smiles_str=CC(C)(C)n1nc(Cc2cccc3ccccc23)c2c(N)ncnc21 property="residual activity" reported_result=1

Field residual activity (entry Nc1nc(Nc2ccc(S(N)(=O)=O)cc2)nn1C(=O)c1c(F)cccc1F ) reads 11

###

target: Ephrin type-B receptor 1 (Homo sapiens) (UniProt P54762); conditions: at 1 µM
Sequence (P54762 whole entry): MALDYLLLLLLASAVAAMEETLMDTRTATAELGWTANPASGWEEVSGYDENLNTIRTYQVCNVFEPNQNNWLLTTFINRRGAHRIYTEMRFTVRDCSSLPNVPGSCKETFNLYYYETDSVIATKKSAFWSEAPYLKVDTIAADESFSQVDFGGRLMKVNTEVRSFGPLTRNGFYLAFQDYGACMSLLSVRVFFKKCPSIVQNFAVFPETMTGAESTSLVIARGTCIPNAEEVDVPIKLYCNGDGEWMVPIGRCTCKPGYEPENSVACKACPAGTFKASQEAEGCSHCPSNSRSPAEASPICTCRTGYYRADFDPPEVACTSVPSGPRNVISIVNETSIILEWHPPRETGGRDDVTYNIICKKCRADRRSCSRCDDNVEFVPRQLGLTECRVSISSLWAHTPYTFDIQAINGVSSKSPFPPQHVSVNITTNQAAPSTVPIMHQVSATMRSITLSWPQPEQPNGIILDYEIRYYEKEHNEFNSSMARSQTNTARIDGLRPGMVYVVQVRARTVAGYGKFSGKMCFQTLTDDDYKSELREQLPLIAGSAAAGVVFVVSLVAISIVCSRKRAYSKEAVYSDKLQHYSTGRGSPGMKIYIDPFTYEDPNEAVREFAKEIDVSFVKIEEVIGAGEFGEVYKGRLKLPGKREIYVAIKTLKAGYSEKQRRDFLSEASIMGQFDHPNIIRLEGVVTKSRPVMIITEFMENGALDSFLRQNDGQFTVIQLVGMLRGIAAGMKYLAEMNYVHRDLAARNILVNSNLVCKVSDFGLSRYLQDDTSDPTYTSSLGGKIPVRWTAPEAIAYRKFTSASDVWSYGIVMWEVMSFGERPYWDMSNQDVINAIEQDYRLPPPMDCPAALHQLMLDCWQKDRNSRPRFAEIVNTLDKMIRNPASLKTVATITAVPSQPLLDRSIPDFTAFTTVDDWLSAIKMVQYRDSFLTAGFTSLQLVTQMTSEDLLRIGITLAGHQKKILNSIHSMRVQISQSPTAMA
Classify: label 1 when residual activity is strictly less than 90%; label 0 when residual activity is not.

Answered examples (3):
smiles_str=CN(C)S(=O)(=O)c1ccc2c(c1)/C(=C/c1cc3c([nH]1)CCCC3)C(=O)N2 discrete_label="label 1"
smiles_str=CCOC(=O)c1c(C)[nH]c(/C=C2\C(=O)Nc3ccccc32)c1C discrete_label="label 0"
smiles_str=COc1cc2c(cc1OC)-c1n[nH]c(Nc3cccc(F)c3)c1C2 discrete_label="label 1"

From here, focus on the item given below.
### Prompt Please let me know if O=c1c(-c2ccc(F)cc2)c(-c2ccncc2)[nH]n1-c1ccc(Cl)cc1 shows residual activity below 90%.
### Response label 0

###

biological target: Ribosomal protein S6 kinase alpha-3 (Homo sapiens); settings: at 10 µM
One threshold, 40%, splits the recorded residual activity values: lower ones are Condition met, equal or higher ones are Condition not met.

// below: answered molecules
smiles_str=O=C(c1cc2cc(O)ccc2[nH]1)c1cc2cc(O)ccc2[nH]1 experimental_system="Ribosomal protein S6 kinase alpha-3 (Homo sapiens)" discrete_label="Condition met"
smiles_str=Oc1cccc(-c2nc(N3CCOCC3)c3oc4ncccc4c3n2)c1 experimental_system="Ribosomal protein S6 kinase alpha-3 (Homo sapiens)" discrete_label="Condition not met"
smiles_str=NCCNc1ncc(C(N)=O)c(Nc2cccc(C(F)(F)F)c2)n1 experimental_system="Ribosomal protein S6 kinase alpha-3 (Homo sapiens)" discrete_label="Condition met"
smiles_str=O=S(=O)(NCCNC/C=C/c1ccc(Br)cc1)c1cccc2cnccc12 experimental_system="Ribosomal protein S6 kinase alpha-3 (Homo sapiens)" discrete_label="Condition met"
smiles_str=COc1cc2ncnc(Nc3cccc(Cl)c3)c2cc1OC experimental_system="Ribosomal protein S6 kinase alpha-3 (Homo sapiens)" discrete_label="Condition not met"

Pending molecule:
### Prompt I wonder whether Cn1sc(=O)n(Cc2ccccc2)c1=O has residual activity below 40%. Can you tell?
### Response Condition not met

###

molecular target: MAP kinase-activated protein kinase 5 (Homo sapiens) (UniProt Q8IW41); details: at 10 µM
Sequence (Q8IW41 whole entry): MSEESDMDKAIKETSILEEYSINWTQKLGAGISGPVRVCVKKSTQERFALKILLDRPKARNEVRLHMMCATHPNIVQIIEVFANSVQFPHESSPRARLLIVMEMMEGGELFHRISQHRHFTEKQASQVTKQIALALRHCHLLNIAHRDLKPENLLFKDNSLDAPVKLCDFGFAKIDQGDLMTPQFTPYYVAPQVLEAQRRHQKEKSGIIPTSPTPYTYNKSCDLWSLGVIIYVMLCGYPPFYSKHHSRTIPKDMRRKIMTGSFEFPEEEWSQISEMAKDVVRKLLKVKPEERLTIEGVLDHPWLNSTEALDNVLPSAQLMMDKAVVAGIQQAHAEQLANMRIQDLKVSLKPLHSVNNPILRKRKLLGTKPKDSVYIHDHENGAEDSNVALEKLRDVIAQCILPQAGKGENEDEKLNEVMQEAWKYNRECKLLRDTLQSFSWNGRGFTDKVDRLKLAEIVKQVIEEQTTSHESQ
Reported residual activity values follow for various compounds
Please make sure the unit comes right after the number.

The cases that follow already have their residual activity on record.
smiles_str=CC(C)(C)c1nc2c3ccc(F)cc3c3c(=O)[nH]ccc3c2[nH]1 reported_result=45%
smiles_str=N#Cc1c(NC(=O)c2cccc3ccccc23)sc2c1CCCC2 reported_result=93%
smiles_str=O=C1C(Cl)=C(N2C(=O)CCC2=O)C(=O)c2ccccc21 reported_result=98%
smiles_str=O=C1Nc2ccc(Cl)cc2/C1=C/c1cc(Cl)c(O)c(Cl)c1 reported_result=17%
smiles_str=NCCNc1ncc(C(N)=O)c(Nc2cccc(C(F)(F)F)c2)n1 reported_result=11%

Note to self: residual activity of O=C1NC(=O)C(c2cn(CCCn3ccnc3)c3ccccc23)=C1Nc1ccccc1 with MAP kinase-activated protein kinase 5 (Homo sapiens) (UniProt Q8IW41) was 59%

Reported MAP kinase-activated protein kinase 5 (Homo sapiens) (UniProt Q8IW41) residual activity for item O=C(CCCc1ccc(-c2ccccc2F)cc1)Nc1ccc(O)cc1 was 64%

Field residual activity (system: MAP kinase-activated protein kinase 5 (Homo sapiens) (UniProt Q8IW41)) for entry N#C/C(=C\c1ccc(O)c(O)c1)C(=O)NCc1ccccc1 = 59%

Item O=C1Cc2c([nH]c3ccc(Br)cc23)-c2ccccc2N1 ; assay system MAP kinase-activated protein kinase 5 (Homo sapiens) (UniProt Q8IW41); residual activity reported as 70%
